Just for reference, patent US20260274955A1 is where these values come from.

# system.name: T1, Anti-CD28 Fab (SEQ ID NOs: 202, 203)
# T1 construct: biotinylated and captured on neutravidin coated plates in the phage ELISA
# assay.overview: phage ELISA on captured Fab, wells pre-incubated with CD28 antigen (competitor: CD28);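 note: bound clonal phage detected with an HRP-linked anti-M13 antibody, compared against wells that received blocking buffer alone without CD28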
So basically, if Anti-CD28 Fab signal in the presence of CD28 comes in under 0.07 it's MET, and if it's 0.07 or more it's NOT MET.

Illustrative cases are given below, each with its answer.
- binder: "YCDGHSAEYLAKCL [Phage-293]"
  discrete.label: "NOT MET"
- binder: "YCDGHLGIYMWKCL [Phage-183]"
  discrete.label: "NOT MET"

Hello, I'm reviewing records and need to know if Anti-CD28 Fab signal in the presence of CD28 of YCDGHMPEYMEKCL [Phage-292] is below 0.07. Could you check?
NOT MET

Hello, I'm reviewing records and need to know if Anti-CD28 Fab signal in the presence of CD28 of YCSGHLPEYMSKCL [Phage-245] is below 0.07. Could you check?
NOT MET

Hello, I'm reviewing records and need to know if Anti-CD28 Fab signal in the presence of CD28 of YCVGHLPQYMEKCL [Phage-267] is below 0.07. Could you check?
NOT MET
